Biological target: Adenosine receptor A2a (Rattus norvegicus)
Sequence (P30543 whole entry): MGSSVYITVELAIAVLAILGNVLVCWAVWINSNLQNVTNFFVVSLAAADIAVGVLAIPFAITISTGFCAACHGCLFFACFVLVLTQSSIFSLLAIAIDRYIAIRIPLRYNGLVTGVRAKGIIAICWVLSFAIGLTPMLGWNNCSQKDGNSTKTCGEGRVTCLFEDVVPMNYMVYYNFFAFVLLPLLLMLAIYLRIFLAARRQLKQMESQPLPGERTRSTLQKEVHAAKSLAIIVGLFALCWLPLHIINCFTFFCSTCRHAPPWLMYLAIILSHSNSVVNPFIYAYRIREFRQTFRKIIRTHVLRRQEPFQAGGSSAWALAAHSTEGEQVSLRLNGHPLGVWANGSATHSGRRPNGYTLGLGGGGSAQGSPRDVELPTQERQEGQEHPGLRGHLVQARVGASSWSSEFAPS
observable: Ki (nM)
The reply should be a number in nM, with the unit left off.

QUERY: # lookup: Ki of Nc1nc(Nc2ccccc2)nc2c1ncn2[C@@H]1O[C@H](CO)[C@H](O)C1O (stereo partly specified)
RESULT: 115
